Hey, just so you know, these numbers are from ChEMBL document CHEMBL1134147.

- System: Escherichia coli
- experiment: Inhibitory activity against accumulation of [14C]-labeled Linezolid within wild-type Escherichia coli K12 cells
- Format: functional, cell-based
- cond: K-12, K12
testReadout: IC50

Data request: Report IC50 for Cc1ccc(C)c(CCC2CCCNC2)c1 (stereo not drawn) please.
Data returned: > 900 µM

Data request: What do we get for Cl.OC1CCNC[C@@H]1Cc1cc(Br)ccc1Cl (stereo partly drawn) ?
Data returned: > 900 µM

Data request: What do we get for Cl.O=C1CCNCC1Cc1cc(Br)ccc1Cl (stereo not drawn) ?
Data returned: > 900 µM

Data request: What do we get for Clc1ccc(CCC2CCCNC2)cc1Cl (stereo not drawn) ?
Data returned: 200 µM

Data request: What do we get for Cl.Clc1ccc(Br)cc1CCC1CCCNC1 (stereo not drawn) ?
Data returned: 185 µM

Data request: What do we get for Cl.F[C@@H]1CCNC[C@H]1CCc1cc(Br)ccc1Cl ?
Data returned: 90 µM

Data request: What do we get for N#Cc1ccc(CCC2CCCNC2)cc1 (stereo not drawn) ?
Data returned: > 900 µM

Data request: What do we get for COc1ccccc1-c1ccc(CCC2CCCNC2)c(Cl)c1 (stereo not drawn) ?
Data returned: > 900 µM
